# procedure.summary: Cytostatic activity, cell growth
# Type: cell-based
# setup.conditions: human, human embryonic lung (HEL) cells
property.name: CC50

| structure.string | result.value |
| --- | --- |
| Nc1ccn(C[C@@H](CO)OCP(=O)(O)O)c(=O)n1 | > 300 µM |

Recorded CC50 of Nc1nc(O)c2ncn(COC(CO)CO)c2n1 , please.
> 350 µM

* * *

I'd appreciate it if you could supply EC50 values for the items below.
# Test system: human cytomegalovirus (HCMV), strain Davis
# Assay type: cell-based
# setup.conditions: Human betaherpesvirus 5, HEL, read-out: Antiviral activity, EC50, Davis
Numbers only, in µM.

| structure.string | property.name | unit.tag | result.value |
| --- | --- | --- | --- |
| Nc1ccn(C[C@@H](CO)OCP(=O)(O)O)c(=O)n1 | EC50 | µM | 1.49 |
| Nc1nc(O)c2ncn(COC(CO)CO)c2n1 | EC50 | µM | 9.21 |

Now for a further compound.
Recorded EC50 of O=c1ccn(Cc2cccc3ccccc23)c(=O)n1CCCCCOc1ccc(Br)cc1 , please.
44.7
